The entries below are paired with their reported pIC50.
- System: BMp190 cells (murine bone marrow transduced with BCR-Abl p190)
- assay: Cell viability assay, BCR-Abl p190-expressing murine bone marrow (BM-p190)
- Type: cell-based
- conditionLabel: 72 h, vital dye exclusion and flow cytometry; read-out: Mean IC50 (+/- SEM) in cell viability assay, BM-p190
Scale explanation: pIC50 corresponds to minus log10 of a concentration expressed in moles per litre.

- chemicalStructure: "CCCCCCCCc1ccc(CO[C@H]2CN[C@H](CO)C2)cc1.Cl"
  dataValue: 5.24

Proceeding to the next molecule to report its pIC50.
*Q* Fill in: pIC50 of CCCCCCCCc1ccc(CO[C@@H]2CN[C@@H](CO)C2)cc1.Cl is ___
*A* 6.30

====

Each item that follows carries a reported pIC50.
- System: BV173 Ph+ ALL cell line
- assay: Cell viability assay, BV173
- Assay type: cell-based, human
- conditionLabel: 72 h, vital dye exclusion and flow cytometry; read-out: Mean IC50 (+/- SEM) in cell viability assay, BV173 Ph+ ALL
To interpret pIC50, take it as minus log10 of a concentration measured in moles per litre.

- chemicalStructure: "CCCCCCCCc1ccc(CO[C@H]2CN[C@H](CO)C2)cc1.Cl"
  pIC50: 4.98

// switching to the query compound
*Q* Which pIC50 is reported with BV173 Ph+ ALL cell line for this entry: CCCCCCCCc1ccc(CO[C@@H]2CN[C@@H](CO)C2)cc1.Cl ?
*A* 5.42

====

- Test system: Nalm-6 Ph- ALL cell line
- assay: Cell viability assay, Nalm-6
- Format: cell-based, human
- conditionLabel: 72 h, vital dye exclusion and flow cytometry; read-out: Mean IC50 (+/- SEM) in cell viability assay, Nalm-6 Ph- ALL
recordedEndpoint: pIC50
Scale: negative log10 of molar concentration, which is what pIC50 denotes.

- molecule: "CCCCCCCCc1ccc(CO[C@H]2CN[C@H](CO)C2)cc1.Cl [Compound 5]"
  pIC50: 4.82

*Q* Fill in: pIC50 of CCCCCCCCc1ccc(CO[C@@H]2CN[C@@H](CO)C2)cc1.Cl [Compound 6] is ___
*A* 4.87

====

- Test system: Nalm-6 Ph- ALL cell line
- assay: Cell viability assay, Nalm-6
- Format: cell-based, human
- conditionLabel: Homo sapiens, NALM-6; 72 h, vital dye exclusion and flow cytometry; read-out: Mean IC50 (+/- SEM) in cell viability assay, Nalm-6 Ph- ALL
recordedEndpoint: IC50 (µM)
Your answer should be a plain number; it is taken to be in µM.

*Q* Given the entry CCCCCCCCc1ccc(CCC(N)(CO)CO)cc1.Cl [FTY720, hydrochloride] , what IC50 was observed with Nalm-6 Ph- ALL cell line?
*A* 9.6

====

- Tested on: DU145 prostate cancer cell line
- assay: Cell viability assay, DU145
- Format: cell-based, human
- conditionLabel: 72 h, vital dye exclusion and flow cytometry; read-out: Mean IC50 (+/- SEM) in cell viability assay, DU145 prostate
recordedEndpoint: pIC50
// pIC50 is dimensionless: -log10 of concentration (M)

- molecule: "CCCCCCCCc1ccc(CO[C@@H]2CN[C@@H](CO)C2)cc1.Cl [Compound 6]"
  targetOrTestSystem: "DU145 prostate cancer cell line"
  pIC50: 4.82

# input for lookup
*Q* Item CCCCCCCCc1ccc(CO[C@H]2CN[C@H](CO)C2)cc1.Cl [Compound 5] has what recorded pIC50?
*A* 4.97

====

- Test system: BMp190 cells (murine bone marrow transduced with BCR-Abl p190)
- assay: Cell viability assay, BCR-Abl p190-expressing murine bone marrow (BM-p190)
- Format: cell-based
- conditionLabel: Mus musculus; 72 h, vital dye exclusion and flow cytometry; read-out: Mean IC50 (+/- SEM) in cell viability assay, BM-p190
recordedEndpoint: pIC50
Units for pIC50: none; it is -log10 of a concentration expressed in mol/L.

*Q* Return reported pIC50; argument: CCCCCCCCc1ccc(CCC(N)(CO)CO)cc1.Cl [FTY720, hydrochloride]
*A* 5.48
